- System: GTPase KRas (Homo sapiens, UniProt P01116, G12D)
- Sequence (P01116 whole entry G12D): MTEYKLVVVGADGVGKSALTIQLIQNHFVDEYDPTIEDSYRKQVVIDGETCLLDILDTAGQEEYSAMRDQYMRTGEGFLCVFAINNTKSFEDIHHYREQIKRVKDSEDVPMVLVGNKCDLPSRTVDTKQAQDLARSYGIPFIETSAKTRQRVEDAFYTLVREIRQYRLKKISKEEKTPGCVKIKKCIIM
- Assay Notes: Binding affinity to 6 His-tagged GDP-loaded human KRAS G12D mutant assessed as GDP-GTP exchange preincubated for 30 mins followed by GTP addition for 30 mins by HTRF method
pIC50: −log10 of the molar value.
Quantity Name: pIC50

[[record]]
item_smiles = "C#Cc1c(F)ccc2cc(O)cc(-c3ncc4c(N5CC6CCC(C5)N6)nc(OCC5(CN6CCC7(CC6)CC(N6CCN(c8cc9c(cc8F)c(N8CCC(=O)N(C)C8=O)nn9C)CC6)C7)CC5)nc4c3F)c12"
quantity_name = "pIC50"
endpoint_value = 8.40

[[record]]
item_smiles = "C#Cc1c(F)ccc2cc(O)cc(-c3ncc4c(N5CC6CCC(C5)N6)nc(OCC5(CN6CCC7(CC6)CC(N6CCC(c8cc9c(cc8F)c(N8CCC(=O)NC8=O)nn9C)CC6)C7)CC5)nc4c3F)c12"
quantity_name = "pIC50"
endpoint_value = 8.20


---

- Assay Notes: Metabolic stability in mouse liver microsomes assessed as half life at 1 uM preincubated for 3 mins with NADPH and measured up to 60 mins by LC-MS/MS analysis
- Type: ADME, Microsome
- Measurement Conditions: time < 63 min
Quantity Name: half-life at 1 µM

[[record]]
item_smiles = "C#Cc1c(F)ccc2cc(O)cc(-c3ncc4c(N5CC6CCC(C5)N6)nc(OCC5(CN6CCC7(CC6)CC(N6CCC(c8cc9c(cc8F)c(N8CCC(=O)NC8=O)nn9C)CC6)C7)CC5)nc4c3F)c12"
quantity_name = "half-life at 1 µM"
endpoint_value = "433 min"


---

- Assay Notes: Stability in dog plasma assessed as half life at 1 uM measured up to 120 mins by LC-MS/MS analysis
- Format: ADME, cell-free, Canis lupus familiaris
Quantity Name: half-life at 1 µM (h)

[[record]]
item_smiles = "C#Cc1c(F)ccc2cc(O)cc(-c3ncc4c(N5CC6CCC(C5)N6)nc(OCC5(CN6CCC7(CC6)CC(N6CCC(c8cc9c(cc8F)c(N8CCC(=O)NC8=O)nn9C)CC6)C7)CC5)nc4c3F)c12"
quantity_name = "half-life at 1 µM"
unit_text = "h"
endpoint_value = 7.22


---

- Assay Notes: Inhibition of Raf (unknown origin)/GTP loaded KRas G12D mutant interaction preincubated for 15 mins followed by anti-tag1-eu3 and Tag2-XL665 antibody addition and measured for 120 mins by HTRF method
- Set-up: species or system Homo sapiens
pIC50: −log10 of the molar value.
Below, each entry is listed with its recorded pIC50.
Quantity Name: pIC50

[[record]]
molecule = "C#Cc1c(F)ccc2cc(O)cc(-c3ncc4c(N5CC6CCC(C5)N6)nc(OCC5(CN6CCC7(CC6)CC(N6CCC(c8cc9c(cc8F)c(N8CCC(=O)NC8=O)nn9C)CC6)C7)CC5)nc4c3F)c12"
quantity_name = "pIC50"
endpoint_value = 8.49

[[record]]
molecule = "C#Cc1c(F)ccc2cc(O)cc(-c3ncc4c(N5CC6CCC(C5)N6)nc(OC[C@@]56CCCN5C[C@H](F)C6)nc4c3F)c12 [MRTX-1133]"
quantity_name = "pIC50"
endpoint_value = 8.84


---

- Assay Notes: Volume of distribution at steady state in male cynomolgus monkey at 1 mg/kg, iv measured up to 24 hrs by LC-MS/MS analysis
- Format: ADME, organism-based, Macaca fascicularis
- Measurement Conditions: in vivo, read-out: Vdss
Quantity Name: Vd (L/kg)

[[record]]
item_smiles = "C#Cc1c(F)ccc2cc(O)cc(-c3ncc4c(N5CC6CCC(C5)N6)nc(OCC5(CN6CCC7(CC6)CC(N6CCC(c8cc9c(cc8F)c(N8CCC(=O)NC8=O)nn9C)CC6)C7)CC5)nc4c3F)c12"
unit_text = "L/kg"
endpoint_value = 12.7


Recorded values, source ChEMBL document CHEMBL6177994.
